Data provenance is the supplement of paper PMC11451515.

tested on: P12-Ichikawa; assay: cell viability relative to DMSO control; higher = less cytotoxic; settings: HPLM + 10% dialyzed FBS; 48 h; 0.00702 µM
reportedEndpoint: cell viability (%)
// note: answer is a bare numeric in %

Q: Would you mind telling me what cell viability value was observed for `O=C1NC(=O)/C(=C/c2ccc3nccnc3c2)S1` ?
Result: 117

Q: Any idea what cell viability was measured for `CCN(CC)CCNC(=O)c1c(C)[nH]c(/C=C2\C(=O)Nc3ccc(F)cc32)c1C` ?
Result: 106

Q: // returns reported cell viability for input `Oc1cc(-c2nc(-c3ccccc3)[nH]c2-c2ccncc2)ccc1Cl`
Result: 110

Q: For the compound shown here, `Cc1cc(Nc2cc(N3CCN(C)CC3)nc(/C=C/c3ccccc3)n2)n[nH]1` , give the reported cell viability.
Result: 115

Q: Which measured cell viability value corresponds to `C=CC(=O)Nc1cccc(Sc2nc(Nc3ccc(N4CCN(C)CC4)cc3)ncc2Cl)c1` ?
Result: 109

Q: // query cell viability value for entry `Cc1ccc2nc(NCCN)c3ncc(C)n3c2c1`
Result: 106

* * *

tested on: P12-Ichikawa; assay: cell viability relative to DMSO control; higher = less cytotoxic; settings: RPMI 5 mM glucose + 10% dialyzed FBS; 48 h; 5.12 µM
reportedEndpoint: cell viability (%)
Give the number; % is assumed, so skip it.

Q: # cell viability lookup, item `COc1cc(C(=O)NC2CCN(C)CC2)ccc1Nc1ncc2c(n1)N(C1CCCC1)CCC(=O)N2C(C)C`
Result: 71.2

Q: Returns the measured cell viability for the input molecule. Input: `Clc2cccc(Cl)c2\N=C1/NCCN1`
Result: 112

Q: Form field: reported cell viability of `CCN(CC)CCNC(=O)c1c(C)[nH]c(/C=C2\C(=O)Nc3ccc(F)cc32)c1C`
Result: 14.3

Q: Please look up its cell viability: `Cc1cc(Nc2ncc3c(n2)N(C)C(=O)N(c2cc(NC(=O)c4cccc(C(F)(F)F)c4)ccc2C)C3)n(C)n1`
Result: 72.1

Q: cell viability for `CN(C)c1nc(Cc2ccc(NC(=O)c3ccc(C(F)(F)F)cc3)cc2)nc(N(C)C)c1CC(=O)O` ?
Result: 95.1

Q: I'd like to know its cell viability. The molecule in question is C[C@]12CCC3c4ccc(O)cc4CCC3C1CCC2=O (some centres undefined)
Result: 72.8

Q: For `CN1C(=O)c2sccc2N(C)c2nc(Nc3ccc([S+](N)(=O)[O-])cc3)ncc21` , what is its reported cell viability?
Result: 23.4

Q: Consider the molecule shown here: `COc1cc2c(cc1OC)[C@@H]1Cc3ccc(OC)c(OC)c3CN1CC2` What is its recorded cell viability?
Result: 109

Q: Quick one: cell viability of `COc1ccccc1[C@H](c1cccc2ccccc12)[C@@](C)(C#N)C(=O)N1CCC(c2cccc(C(F)(F)F)c2)CC1` ?
Result: 88.7

* * *

tested on: SEM cells; assay: cell viability relative to DMSO control; higher = less cytotoxic; conditions: RPMI 5 mM glucose + 10% FBS; 48 h; 15.4 µM
Exercise: for every item that follows, state its recorded cell viability.
Write the numeric value and follow it with the unit.

Q: // lookup cell viability for `Nc1ccc(C(=O)c2cc3c(ccc4ccccc43)[nH]2)cc1`
Result: 15.9%

Q: Sample `CN(C)C/C=C/C(=O)Nc1ccc(C(=O)Nc2cccc(Nc3ncc(Cl)c(-c4c[nH]c5ccccc45)n3)c2)cc1` — what was its cell viability?
Result: 6.09%

Q: Which cell viability is listed for C[C@]1(O)CC(C1)C2=NC(=C3[N]2C=CN=C3N)C4=CC5=C(C=C4)C=CC(=N5)C6=CC=CC=C6 (stereo unspecified) ?
Result: 3.06%

Q: # cell viability lookup, item `Cc1cn2cc(C(=O)N(C)CCO)cc(N[C@@H]3CCOc4cccc(C)c43)c2n1`
Result: 67.6%

Q: Query: cell viability; subject: CN(CCOc1ccc(CC2SC(=O)NC2=O)cc1)c1ccccn1 (stereo unspecified)
Result: 97.3%

Q: Field request: cell viability | item: `COc1cc(NCc2ccc3nc(N)nc(N)c3c2C)cc(OC)c1OC`
Result: 72.5%

Q: Report cell viability for `O=C(O)c1ccc(O)c2ncc(N3CCOCC3)cc12` please.
Result: 84%

Q: Look up cell viability for this compound: `C[C@]12CC[C@H]3[C@@H](CC(=C)\C4=C\C(=O)\C=C/[C@]34C)[C@@H]1CCC2=O`
Result: 36.5%

Q: Which cell viability is listed for CCC(C)CCCCC(=O)N[C@@H](CCN)C(=O)NC(C(=O)N[C@H](CCN)C(=O)N[C@@H]1CCNC(=O)C([C@@H](C)O)NC(=O)[C@@H](CCN)NC(=O)[C@@H](CCN)NC(=O)[C@@H](CC(C)C)NC(=O)[C@H](Cc2ccccc2)NC(=O)[C@H](CCN)NC1=O)[C@@H](C)O (stereo partly specified) ?
Result: 118%

Q: Quick one: cell viability for `CNC(=O)c1ccc2c(c1)NC(=O)/C2=C(\Nc1cccc(CN(C)C)c1)c1ccccc1` ?
Result: 1.5%

Q: Query (compound): `Cc1cc(Nc2cc(N3CCN(C)CC3)nc(/C=C/c3ccccc3)n2)n[nH]1` ; field requested: cell viability
Result: 3.57%

Q: Recorded cell viability for `COC1=CC=C(C=C1)/C2=C(O)/C(=O)C3=C(O)C=C(O)C(=C3O2)CC=C(C)C` , please?
Result: 80.4%

Q: Return reported cell viability; argument: `O=C1N(c2ccccc2)c2ccccc2C1(Cc1ccncc1)Cc1ccncc1`
Result: 108%

Q: Need cell viability of `CN1C(=O)/C(=C(NC2=CC=C(I)C=C2F)\C3=C1\N=C/N(C[C@@H](O)CO)C3=O)F` , thanks.
Result: 12.8%

Q: Requested read-out: cell viability. Entry: `CNc1nc(-c2ccc3c(N)n[nH]c3c2)cc(N2C[C@@H](C(=O)NC3CCCCC3)CC[C@H]2C)n1`
Result: 47.9%

Q: Given the compound `CO[C@@H](C(=O)N1Cc2[nH]nc(NC(=O)c3ccc(N4CCN(C)CC4)cc3)c2C1)c1ccccc1` , what is its reported cell viability?
Result: 15%

* * *

system: SEM cells; test: cell viability relative to DMSO control; higher = less cytotoxic; settings: RPMI 5 mM glucose + 10% dialyzed FBS; 48 h; 5.12 µM
Could you please report measured cell viability for the items listed next?

Q: Which cell viability is listed for `Cc1ccc(C(=O)Nc2cccc(C(F)(F)F)c2)cc1Nc1nc(-c2cccnc2)nc2c1cnn2C` ?
Result: 113%

Q: # get_value(readout='cell viability', item= `O=C(O)c1cc(O)c2c(c1)C(=O)c1cccc(O)c1C2=O` )
Result: 116%

Q: Give the measured cell viability of `CC(C)(N)c1ccc(-c2nc3ccccc3nc2-c2ccccc2)cc1` .
Result: 4.26%

Q: # input molecule: `OC[C@H]1O[C@H](C[C@@H]1O)N2/C=C(C(=O)NC2=O)/C(F)(F)F` ; wanted: its cell viability
Result: 22.6%

Q: Quick check: cell viability of `Cc1cc(Nc2ncc3c(n2)N(C)C(=O)N(c2cc(NC(=O)c4cccc(C(F)(F)F)c4)ccc2C)C3)n(C)n1` ?
Result: 6.61%

Q: Returns the measured cell viability for the input molecule. Input: `O=C(/C=C/c1ccc(/C=C/C(=O)Nc2ccc(C3=NCCN3)cc2)cc1)Nc1ccc(C2=NCCN2)cc1`
Result: 108%

Q: What cell viability value was documented for this molecule, `CNC(=O)c1ccc2c(c1)NC(=O)/C2=C(\Nc1cccc(CN(C)C)c1)c1ccccc1` ?
Result: 3.62%

Q: For `COC1=CC=C(C=C1)/C2=C(O)/C(=O)C3=C(O)C=C(O)C(=C3O2)CC=C(C)C` , what is its reported cell viability?
Result: 125%

Q: Param item = C[C@]12CCC3c4ccc(O)cc4CCC3C1CCC2=O (some centres not stated) ; retrieve measured cell viability.
Result: 93.2%

Q: I'd like to know its cell viability. The molecule in question is Cc1c(N)nc([C@H](CC(N)=O)NC[C@@H](N)C(N)=O)nc1C(=O)N[C@H](C(=O)N[C@@H](C)[C@H](O)[C@@H](C)C(=O)N[C@@H](C(=O)NCCc1nc(-c2nc(C(=O)NCCC[S+](C)C)cs2)cs1)[C@@H](C)O)C(O[C@H]1O[C@H](CO)[C@H](O)[C@@H](O)[C@H]1O[C@H]1O[C@H](CO)[C@@H](O)[C@H](OC(N)=O)[C@@H]1O)c1c[nH]cn1 (some centres not stated)
Result: 54.3%

Q: Please look up its cell viability: `COc1cc(C(=O)NC2CCN(C)CC2)ccc1Nc1ncc2c(n1)N(C1CCCC1)CCC(=O)N2C(C)C`
Result: 96.5%

Q: Record request: cell viability value, item `CCN(CC)CCNC(=O)c1c(C)[nH]c(/C=C2\C(=O)Nc3ccc(F)cc32)c1C`
Result: 5.9%

Q: State the recorded cell viability for this entry: `COCCn1c2c([n+](Cc3cnccn3)c1C)C(=O)c1ccccc1C2=O`
Result: 5.94%

Q: // cell viability lookup, key: `Nc1ccc(C(=O)c2cc3c(ccc4ccccc43)[nH]2)cc1`
Result: 27.9%

Q: Which cell viability value belongs to `CN1C(=O)c2sccc2N(C)c2nc(Nc3ccc([S+](N)(=O)[O-])cc3)ncc21` ?
Result: 14.8%

Q: Endpoint output: cell viability of `C=CC(=O)Nc1cc2c(Nc3ccc(F)c(Cl)c3)ncnc2cc1C#CC(C)(C)N1CCN(C)CC1` . Value?
Result: 19.3%

Q: Suppose we examine the molecule `C[S+](=O)([O-])Oc1ccc2c(NC(N)=O)c(C(=O)c3ccc(Cl)cc3Cl)oc2c1` ; what cell viability value has been reported?
Result: 98.2%
